Settings: in tert-amyl alcohol, 278.15 K
endpoint-label: solubility (mole fraction)

1. Cc1ccc(NC(=O)/C(=C/Cl)Sc2ccccc2)cc1 ... 0.0013

* * *

Details: in acetone, 303.15 K
endpoint-label: solubility (mole fraction)

1) Cc1ccc(NC(=O)/C(=C/Cl)Sc2ccccc2)cc1 ... 0.0564

* * *

Details: in isopropanol, 308.15 K
endpoint-label: solubility (mole fraction)

1. Cc1ccc(NC(=O)/C(=C/Cl)Sc2ccccc2)cc1 ... 0.0063

* * *

Conditions: in toluene, 283.15 K
endpoint-label: solubility (mole fraction)

1. Cc1ccc(NC(=O)/C(=C/Cl)Sc2ccccc2)cc1 ... 0.0165

* * *

Details: in 2-methyltetrahydrofuran, 318.15 K
endpoint-label: solubility (mole fraction)

1. Cc1ccc(NC(=O)/C(=C/Cl)Sc2ccccc2)cc1 ... 0.145

* * *

Conditions: in methyl acetate, 303.15 K
endpoint-label: solubility (mole fraction)

1) Cc1ccc(NC(=O)/C(=C/Cl)Sc2ccccc2)cc1 ... 0.0471

* * *

Details: in isopropanol, 278.15 K
endpoint-label: solubility (mole fraction)

1) Cc1ccc(NC(=O)/C(=C/Cl)Sc2ccccc2)cc1 ... 0.0019

* * *

Details: in tert-amyl alcohol, 298.15 K
endpoint-label: solubility (mole fraction)

1. Cc1ccc(NC(=O)/C(=C/Cl)Sc2ccccc2)cc1 ... 0.0034

* * *

Conditions: in 1,2-dichloroethane, 283.15 K
endpoint-label: solubility (mole fraction)

1. Cc1ccc(NC(=O)/C(=C/Cl)Sc2ccccc2)cc1 ... 0.0413

* * *

Details: in methyl acetate, 288.15 K
endpoint-label: solubility (mole fraction)

1. Cc1ccc(NC(=O)/C(=C/Cl)Sc2ccccc2)cc1 ... 0.0228

* * *

Conditions: in isopropanol, 318.15 K
endpoint-label: solubility (mole fraction)

1) Cc1ccc(NC(=O)/C(=C/Cl)Sc2ccccc2)cc1 ... 0.0093

* * *

Details: in acetonitrile, 278.15 K
endpoint-label: solubility (mole fraction)

1. Cc1ccc(NC(=O)/C(=C/Cl)Sc2ccccc2)cc1 ... 0.0043

* * *

Conditions: in isopropanol, 298.15 K
endpoint-label: solubility (mole fraction)

1. Cc1ccc(NC(=O)/C(=C/Cl)Sc2ccccc2)cc1 ... 0.0041

* * *

Details: in methyl acetate, 278.15 K
endpoint-label: solubility (mole fraction)

1. Cc1ccc(NC(=O)/C(=C/Cl)Sc2ccccc2)cc1 ... 0.0153

* * *

Conditions: in acetonitrile, 303.15 K
endpoint-label: solubility (mole fraction)

1) Cc1ccc(NC(=O)/C(=C/Cl)Sc2ccccc2)cc1 ... 0.0148

* * *

Details: in acetone, 278.15 K
endpoint-label: solubility (mole fraction)

1. Cc1ccc(NC(=O)/C(=C/Cl)Sc2ccccc2)cc1 ... 0.0216

* * *

Conditions: in acetonitrile, 308.15 K
endpoint-label: solubility (mole fraction)

1. Cc1ccc(NC(=O)/C(=C/Cl)Sc2ccccc2)cc1 ... 0.02

* * *

Conditions: in 2-butanone, 283.15 K
endpoint-label: solubility (mole fraction)

1. Cc1ccc(NC(=O)/C(=C/Cl)Sc2ccccc2)cc1 ... 0.0365

* * *

Conditions: in acetone, 298.15 K
endpoint-label: solubility (mole fraction)

1) Cc1ccc(NC(=O)/C(=C/Cl)Sc2ccccc2)cc1 ... 0.0452

* * *

Details: in 1,2-dichloroethane, 293.15 K
endpoint-label: solubility (mole fraction)

1. Cc1ccc(NC(=O)/C(=C/Cl)Sc2ccccc2)cc1 ... 0.0615
